measurement.kind: pIC50
Units for pIC50: none; it is -log10 of a concentration expressed in mol/L.

Problem: Recall the recorded pIC50 for C=CC(=O)N1CC2CCCC2C1c1nc(-c2ccc(C(=O)Nc3ccccn3)cc2)c2c(N)nccn12 (stereo unspecified) with Tyrosine-protein kinase BTK (Homo sapiens) and state it.
Sequence (Q06187 whole entry): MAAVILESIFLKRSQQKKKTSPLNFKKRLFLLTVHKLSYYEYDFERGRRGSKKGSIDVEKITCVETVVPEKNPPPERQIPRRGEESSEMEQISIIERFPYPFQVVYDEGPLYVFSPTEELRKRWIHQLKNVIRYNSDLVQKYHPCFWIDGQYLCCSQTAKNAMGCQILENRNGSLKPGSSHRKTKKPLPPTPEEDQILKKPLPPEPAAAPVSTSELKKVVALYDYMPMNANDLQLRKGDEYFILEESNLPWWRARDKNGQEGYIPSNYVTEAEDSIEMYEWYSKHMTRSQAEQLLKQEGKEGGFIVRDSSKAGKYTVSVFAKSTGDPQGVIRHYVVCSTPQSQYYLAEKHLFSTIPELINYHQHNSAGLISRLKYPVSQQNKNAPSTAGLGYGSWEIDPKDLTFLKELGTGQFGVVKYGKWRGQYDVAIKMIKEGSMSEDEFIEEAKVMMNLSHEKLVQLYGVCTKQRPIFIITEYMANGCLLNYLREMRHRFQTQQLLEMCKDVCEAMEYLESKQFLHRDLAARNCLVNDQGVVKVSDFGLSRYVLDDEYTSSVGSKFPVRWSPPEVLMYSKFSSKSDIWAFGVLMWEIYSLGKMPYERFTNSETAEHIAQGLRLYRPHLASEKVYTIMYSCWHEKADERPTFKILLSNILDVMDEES
Solution: 8.33
